Reported composite z-score values are given for each entry in this list.
- Study target: Epidermal growth factor receptor (Homo sapiens)
- Procedure details: EGFR binders on small-molecule microarrays, primary screen, biochemical, small-molecule microarray, 635 nm fluorescence (AID 1104);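 further: score merges 667 nm emission intensity with spot signal to noise over triplicate slides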
- Measurement setup: EGFR binding, higher = more signal
// return a plain number; no unit text

| Compound | composite z-score |
| --- | --- |
| CC1CC/C=C\[C@H]2OC34C=CCN(C(C)C)C(=O)[C@H]3N(CCCO)C(=O)[C@@H]4C2C(=O)O1 (stereo partly drawn) | -1.74 |

Lookup: Item: CCOC(=O)C[C@H]1[C@H](OC(=O)c2ccc(C(=O)c3ccccc3)cc2)[C@@H](NC(=O)c2ccc(-c3ccccc3)cc2)c2cc(OCCCO)ccc2N1C(=O)c1ccc2ccccc2n1 Test system: Epidermal growth factor receptor (Homo sapiens) Read-out: composite z-score Value: ?
Found: 0.519

Lookup: Thanks! And COC(=O)[C@H](C)NC(=O)CCC1CC(OC(=O)NCCc2ccc(F)cc2)CC2(CCCC(COC(=O)NCCc3ccc(Cl)cc3)O2)O1 (stereo partly drawn) ?
Found: 0.344

* * *

Reported z-score values are given for each entry in this list.
- Procedure details: basal 3T3-L1 adipocyte mitochondrial potential changes, profiling panel, cell-based, JC-1 fluorescence, 3T3-L1 adipocytes, 24 h, 100 nL compound (AID 1168); further: test concentration not given here
- Measurement setup: JC-1 mitochondrial fluorescence, higher = more signal, called active from +8 up or from −8 down
// return a plain number; no unit text

Check out these entries, answers already filled in.
| Structure string | z-score |
| --- | --- |
| CC(C)[C@@H](OCc1ccccc1)[C@H](C)C=NO[C@H](C)c1cn([C@H](CO)Cc2ccccc2)nn1 | 0.629 |
| COCC(=C=CC[C@@H](O)c1ccccc1OCCO)CCO | 0.432 |
| CC(C)C[C@@H]1NC(=O)[C@H]2C[C@@H](C(=O)NCCCCCCN(C)C)[C@@H](c3cccc(OCCO)c3)N2C1=O | -0.481 |
| Cc1cc(C)c(-c2cc([C@H](C)ON=C3[C@H]4CCn5c(=O)n(-c6ccccc6)c(=O)n5[C@H]4[C@H](O)[C@@H]4O[C@H]34)on2)c(C)c1 | -0.803 |
| CC(C)(C)N1C(=O)[C@H]2[C@H]3[C@H](O)[C@H](O)CC(=NOCc4ccccc4)[C@@H]3CC[C@H]2C1=O | -0.249 |
| COc1ccc([Si](C)(C)[C@H]2[C@H](CCO)O[C@@]3(C(=O)N(Cc4cccc(NC(=O)[C@H](C)O)c4)c4ccccc43)[C@@H]2C)cc1 | 1.46 |

Let's switch to this compound now.
Lookup: Return reported z-score; argument: C=C(COC)/C(=C/C[C@H](OC(=O)c1ccncc1)c1ccc(CO)o1)c1cc(C(=O)OC)ccc1OC
Found: -1.01

* * *

- Procedure details: E. coli acrAB mutant growth effects, primary screen, E. coli filamentation inducers, strain DRC39, OD650, 24 h (AID 1178);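 further: growth measured as culture turbidity by optical density at 650 nm; test concentration not given here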
- Measurement setup: higher = more signal, called active from +8 up or from −8 down
Threshold rule: z-score greater than or equal to 0.2 is T; below that, F.

| Molecule | Assigned category |
| --- | --- |
| CCOC(=O)[C@H](Cc1ccccc1)NC(=O)CCC1CC(OC(=O)NCc2ccc3c(c2)OCO3)CC2(CCCC(COC(=O)NCc3cccc(C(F)(F)F)c3)O2)O1 (stereo partly specified) | F |
| COc1ccc(O[C@H]2C=C[C@@H](c3ccccc3)O[C@@H]2COC(=O)CCC(C)=NOC[C@@H](C)[C@H](OCc2ccccc2)C(C)C)cc1 | T |
| CCN1C(=O)[C@H]2[C@H]3[C@H](O)[C@H](O)CC(=NOCC=C(C)CCC=C(C)C)[C@H]3CC[C@H]2C1=O | T |
| O=C1O[C@@H](c2ccccc2)[C@@H](c2ccccc2)N2[C@@H](c3ccc(OCCO)cc3)[C@]3(C(=O)Nc4ccc(C#CCCO)cc43)[C@@H](C(=O)N3CCCCCCC3)[C@H]12 | F |
| CC(=O)OC[C@H]1O[C@@H](ON=C[C@@H](C)[C@H](OCc2ccccc2)C(C)C)[C@H](OC(C)=O)[C@@H](OC(C)=O)[C@@H]1OC(C)=O | F |

Alright, here's another molecule for you.
Lookup: Would you say O=C1O[C@@H](c2ccccc2)[C@@H](c2ccccc2)N2[C@@H](c3ccc(OCCO)cc3)[C@]3(C(=O)Nc4ccccc43)[C@@H](C(=O)N3CCN(c4ncccn4)CC3)[C@H]12 shows z-score at minimum 0.2?
Found: F

Value source: PubChem BioAssay
